B1: library; numbered along this chain (parent)
chain: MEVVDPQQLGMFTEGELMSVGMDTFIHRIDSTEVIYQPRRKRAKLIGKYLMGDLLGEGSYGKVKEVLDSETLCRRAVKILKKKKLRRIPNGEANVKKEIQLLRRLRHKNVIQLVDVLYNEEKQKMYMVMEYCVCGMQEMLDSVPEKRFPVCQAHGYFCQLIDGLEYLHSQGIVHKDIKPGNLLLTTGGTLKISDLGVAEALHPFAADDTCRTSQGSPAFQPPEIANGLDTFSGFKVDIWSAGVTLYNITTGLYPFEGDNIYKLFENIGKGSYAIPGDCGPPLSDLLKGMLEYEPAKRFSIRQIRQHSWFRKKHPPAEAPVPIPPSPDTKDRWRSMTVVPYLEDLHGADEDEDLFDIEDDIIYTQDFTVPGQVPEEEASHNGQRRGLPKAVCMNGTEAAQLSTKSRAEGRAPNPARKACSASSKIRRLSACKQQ

Variants of: B1
Experiment: STK11 functional score (HeLa growth suppression), rescaled enrichment; synonymous median = 1, nonsense median = 0 (normalised score)
Conditions: with HeLa; variant type: missense
Cut-off 1 on STK11 functional score: below means 1 (yes), at or above means 0 (no).

Sample answers from the record:
VARIANT DESIGNATION: D207W
ASSIGNED CLASS: 1 (yes)
//
VARIANT DESIGNATION: S169G
ASSIGNED CLASS: 0 (no)
//
VARIANT DESIGNATION: S401M
ASSIGNED CLASS: 0 (no)
//
VARIANT DESIGNATION: V34L
ASSIGNED CLASS: 0 (no)
//
VARIANT DESIGNATION: L167R
ASSIGNED CLASS: 1 (yes)

Q: Answer whether the variant E33F has STK11 functional score strictly less than 1
Ans: 1 (yes)

Q: Dear colleague, could you confirm whether STK11 functional score of G270D falls below 1? Thanks.
Ans: 0 (no)

Q: Problem: For the variant G346T , is STK11 functional score under 1?
Ans: 0 (no)

Q: In the record for G370W , is STK11 functional score less than 1?
Ans: 0 (no)

Q: Is the reported STK11 functional score for R74S strictly below 1?
Ans: 1 (yes)
